This collection of values is drawn from patent US12583888B2.

Test system: U87-MG glioblastoma
Settings: i.v. equimolar mix, 2 h circulation
Representation of phage in tumors (fold G7 control phage), U87-MG reference
outcome_measure: Representation of phage in tumors (fold G7 control phage), U87-MG (fold)

CSRRGILRAKPAAALE; 1.1
RRLVRVA; 0.6
RGRLVRA; 0.8
AVRGRLRVAKLAAALE; 0.8

---

Test system: U87-MG glioblastoma
Conditions: i.v. equimolar mix, 2 h circulation
outcome_measure: Representation of phage in tumors (fold G7 control phage), U87-MG (fold)

AGRGRLVRAKLAAALE; 0.2
RGRLVRAK; 0.5
GGGGGGG [reference compound]; 1.0
AGVGRLRRAKLAAALE; 1.0
CRGVLRRAKLAAALE; 0.7
CAGRGRLVRC; 0.1
GRLTRVR; 0.9
AGRGRLVR [PL3]; 2.1
VGRVRFSRKLAAALE; 0.7
